- System: Cryptococcus neoformans
- run_parameters: Concentration 20 uM; ASSAY_TEST Inhibition of Fungal Growth; detection method Resazurin; Absorption (OD600-OD570); plate type 384well; NBS; CORNING #3640
- Description: Antifungal activity against Cryptococcus neoformans H99 ATCC 208821 (CO-ADD:FG_002); MIC in YNB media using NBS plates, by Resazurin OD(600-570)
Entries with a potency or affinity are not part of this list.
# Lookup of reported Inhibition keyed by entry

| compound | Inhibition |
| --- | --- |
| Cn1c([N+](=O)[O-])cnc1N1CCN(c2nncs2)C1=O | -10.17% |
| Cc1cccnc1N=C(S)Nc1ncccc1C | -10.6% |
| Cc1c(C(C)(C(=O)O)c2c(C)n(C)c3ccccc23)c2ccccc2n1C | -5.48% |
| Cc1cc2c(c(C#N)c1C)NC=NC2C (stereo not drawn) | -13.76% |
| NC(=O)Cc1ccc2c(c1)[nH]c1ccccc12 | -8.43% |
| CC(=C/c1ccccc1)/C=C1/NC(=S)NC1=O | -5.48% |
| CC1(C)CCCC2(C)C(OCCO)=CC(=O)C=C12 (stereo not drawn) | -10.94% |
| CCOc1nsc(OCC)n1 | -10.38% |
| CC1=NN(c2ccccc2)C(=O)C1/N=N/c1ccc(S(N)(=O)=O)cc1 (stereo not drawn) | -4.3% |
| S=C(Nc1ccccc1)c1ccccn1 | -3.26% |
| CC(=O)Nc1c(C)cc(OCC(=O)O)cc1C | -9.89% |
| N=C(N)Nc1nc2cc([N+](=O)[O-])ccc2[nH]1 | -6.56% |
| CC(C)C(=O)Nc1cccnc1 | 8.85% |
